Data credit: patent US6914045B2

// values below are reported MIC Enterococcus avium (GC 4558)
# System: Enterococcus sp.
# METHOD NOTES: in vitro antibacterial evaluation, MIC by broth dilution
# Format: cell-based
# STATED CONDITIONS: Enterococcus avium (GC 4558); broth dilution, 18 hours at 35° C.
Number only, in µg/mL; omit the unit.

Use the examples below as a reference point.
{"MOLECULE": "Cc1ccc(CC2OCC3OC(OC4C(CO)OC(Oc5ccc(CC6NC(=O)C(C(C)c7ccccc7)NC(=O)CNC(=O)C(CO)NC(=O)C(C(O)C7CNC(=N)N7C7OC(CO)C(O)C(O)C7O)NC(=O)C(C(O)C7CNC(=N)N7)NC6=O)cc5)C(O)C4O)C(O)C(O)C3O2)cc1 (stereo not drawn) [Example 119]", "QUANTITATIVE RESULT": 4}
{"MOLECULE": "CC(C)=CCCC(C)C1OCC2OC(OC3C(CO)OC(Oc4ccc(CC5NC(=O)C(C(C)c6ccccc6)NC(=O)CNC(=O)C(CO)NC(=O)C(C(O)C6CNC(=N)N6C6OC(CO)C(O)C(O)C6O)NC(=O)C(C(O)C6CNC(=N)N6)NC5=O)cc4)C(O)C3O)C(O)C(O)C2O1 (stereo not drawn) [Example 125]", "QUANTITATIVE RESULT": 32}

# evaluate next
Data request: Reported MIC Enterococcus avium (GC 4558) for CC(c1ccccc1)C1NC(=O)CNC(=O)C(CO)NC(=O)C(C(O)C2CN(Cc3ccc(C(C)(C)C)cc3)C(=N)N2C2OC(CO)C(O)C(O)C2O)NC(=O)C(C(O)C2CNC(=N)N2)NC(=O)C(Cc2ccc(OC3OC(CO)C(OC4OC(CO)C(O)C(O)C4O)C(O)C3O)cc2)NC1=O (stereo not drawn) [Example 60] : what is it?
Data returned: 128

----------
# MIC Enterococcus faecium (GC 4556) per record follows
# Tested on: Enterococcus sp.
# METHOD NOTES: in vitro antibacterial evaluation, MIC by broth dilution
# Type: cell-based
# STATED CONDITIONS: broth dilution, 18 hours at 35° C.
Dear colleague, please return just the value in µg/mL, with no unit written.

See these solved cases before continuing.
{"MOLECULE": "CC(c1ccccc1)C1NC(=O)CNC(=O)C(CO)NC(=O)C(C(O)C2CNC(=N)N2C2OC(CO)C(O)C(O)C2O)NC(=O)C(C(O)C2CNC(=N)N2)NC(=O)C(Cc2ccc(OC3OC(CO)C(OC4OC(COCc5ccc(OCc6ccccc6)cc5)C(O)C(O)C4O)C(O)C3O)cc2)NC1=O (stereo not shown)", "MIC Enterococcus faecium (GC 4556), µg/mL": 4}
{"MOLECULE": "N=C1NCC(C(O)C2NC(=O)C(Cc3ccc(OC4OC(CO)C(OC5OC6COC(CCc7ccccc7)OC6C(O)C5O)C(O)C4O)cc3)NC(=O)C(CC3CCCCC3)NC(=O)CNC(=O)C(CO)NC(=O)C(C(O)C3CNC(=N)N3C3OC(CO)C(O)C(O)C3O)NC2=O)N1 (stereo not shown)", "MIC Enterococcus faecium (GC 4556), µg/mL": 1}

Okay, next one:
Data request: If you can, please state the reported MIC Enterococcus faecium (GC 4556) value of CC(c1ccccc1)C1NC(=O)CNC(=O)C(CO)NC(=O)C(C(O)C2CNC(=N)N2C2OC(CO)C(O)C(O)C2O)NC(=O)C(C(O)C2CNC(=N)N2)NC(=O)C(Cc2ccc(OC3OC(CO)C(OC4OC5COC6(CCCCC6)OC5C(O)C4O)C(O)C3O)cc2)NC1=O (stereo not shown) .
Data returned: 4

----------
# maps each entry to its MIC Enterococcus faecium (GC 4557)
# Test system: Enterococcus sp.
# METHOD NOTES: in vitro antibacterial evaluation, MIC by broth dilution
# Format: cell-based
# STATED CONDITIONS: Enterococcus faecium (GC 4557); broth dilution, 18 hours at 35° C.
API: value field is a number in µg/mL; no unit string.

{"COMPOUND": "CC(C)=CCCC(C)=CCN=C1NCC(C(O)C2NC(=O)C(C(O)C3CNC(=N)N3)NC(=O)C(Cc3ccc(OC4OC(CO)C(OC5OC6COC7(OC6C(O)C5O)C5CC6CC(C5)CC7C6)C(O)C4O)cc3)NC(=O)C(C(C)c3ccccc3)NC(=O)CNC(=O)C(CO)NC2=O)N1C1OC(CO)C(O)C(O)C1O (centres unmarked)", "MIC Enterococcus faecium (GC 4557), µg/mL": 2}

Next compound, MIC Enterococcus faecium (GC 4557) to be filled in.
Data request: Query: MIC Enterococcus faecium (GC 4557); subject: CCCCOC(=O)CCC1OCC2OC(OC3C(CO)OC(Oc4ccc(CC5NC(=O)C(C(C)c6ccccc6)NC(=O)CNC(=O)C(CO)NC(=O)C(C(O)C6CNC(=N)N6C6OC(CO)C(O)C(O)C6O)NC(=O)C(C(O)C6CNC(=N)N6)NC5=O)cc4)C(O)C3O)C(O)C(O)C2O1 (centres unmarked)
Data returned: 2

----------
# Tested on: Staphylococcus sp.
# METHOD NOTES: in vitro antibacterial evaluation, MIC by broth dilution
# Type: cell-based
# STATED CONDITIONS: broth dilution, 18 hours at 35° C.; strain GC 4546
Attribute: MIC Staphylococcus haemolyticus (GC 4546)
Your answer is read as µg/mL, so omit the unit and give the number.

The following compounds have reported results that may help.
{"COMPOUND": "CC(c1ccccc1)C1NC(=O)CNC(=O)C(CO)NC(=O)C(C(O)C2CNC(=N)N2C2OC(CO)C(O)C(O)C2O)NC(=O)C(C(O)C2CNC(=N)N2)NC(=O)C(Cc2ccc(OC3OC(CO)C(OC4OC5COC(c6ccccc6)OC5C(O)C4O)C(O)C3O)cc2)NC1=O (stereo not shown) [Example 104]", "UNIT TEXT": "µg/mL", "QUANTITATIVE RESULT": 0.5}
{"COMPOUND": "CC(=O)n1cc(C2OCC3OC(OC4C(CO)OC(Oc5ccc(CC6NC(=O)C(C(C)c7ccccc7)NC(=O)CNC(=O)C(CO)NC(=O)C(C(O)C7CNC(=N)N7C7OC(CO)C(O)C(O)C7O)NC(=O)C(C(O)C7CNC(=N)N7)NC6=O)cc5)C(O)C4O)C(O)C(O)C3O2)c2ccccc21 (stereo not shown) [Example 161]", "UNIT TEXT": "µg/mL", "QUANTITATIVE RESULT": 4}

Data request: Query for Staphylococcus sp.: what MIC Staphylococcus haemolyticus (GC 4546) does the record show for CCCC(CCC)C(=O)OCC1OC(Oc2ccc(CC3NC(=O)C(C(C)c4ccccc4)NC(=O)CNC(=O)C(CO)NC(=O)C(C(O)C4CNC(=N)N4C4OC(CO)C(O)C(O)C4O)NC(=O)C(C(O)C4CNC(=N)N4)NC3=O)cc2)C(O)C(O)C1OC1OC(CO)C(O)C(O)C1O (stereo not shown) [Example 99b] ?
Data returned: 4

Data request: Check CC(c1ccccc1)C1NC(=O)CNC(=O)C(CO)NC(=O)C(C(O)C2CNC(=N)N2C2OC(CO)C(O)C(O)C2O)NC(=O)C(C(O)C2CNC(=N)N2)NC(=O)C(Cc2ccc(OC3OC(CO)C(OC4OC5COC(c6cccs6)OC5C(O)C4O)C(O)C3O)cc2)NC1=O (stereo not shown) [Example 132] too.
Data returned: 1

Data request: Same for CC(c1ccccc1)C1NC(=O)CNC(=O)C(CO)NC(=O)C(C(O)C2CNC(=N)N2C2OC(CO)C(O)C(O)C2O)NC(=O)C(C(O)C2CNC(=N)N2)NC(=O)C(Cc2ccc(OC3OC(CO)C(OC4OC5COC(c6ccc(C(=O)c7ccccc7)cc6)OC5C(O)C4O)C(O)C3O)cc2)NC1=O (stereo not shown) [Example 173]
Data returned: 1

Data request: Please give the result for CC(c1ccccc1)C1NC(=O)CNC(=O)C(CO)NC(=O)C(C(O)C2CNC(=N)N2C2OC(CO)C(O)C(O)C2O)NC(=O)C(C(O)C2CNC(=N)N2)NC(=O)C(Cc2ccc(OC3OC(CO)C(OC4OC5COC(c6cccc(Oc7ccccc7)c6)OC5C(O)C4O)C(O)C3O)cc2)NC1=O (stereo not shown) [Example 170] too.
Data returned: 8

----------
# Tested on: Enterococcus sp.
# METHOD NOTES: in vitro antibacterial evaluation, MIC by broth dilution
# Assay type: cell-based
# STATED CONDITIONS: broth dilution, 18 hours at 35° C.; strain GC 6189
ASSAY METRIC: MIC Enterococcus faecalis (GC 6189) (µg/mL)
Express the result in µg/mL but write the number alone.

Data request: What measured MIC Enterococcus faecalis (GC 6189) goes with Cc1ccc(CC2OCC3OC(OC4C(CO)OC(Oc5ccc(CC6NC(=O)C(C(C)c7ccccc7)NC(=O)CNC(=O)C(CO)NC(=O)C(C(O)C7CNC(=N)N7C7OC(CO)C(O)C(O)C7O)NC(=O)C(C(O)C7CNC(=N)N7)NC6=O)cc5)C(O)C4O)C(O)C(O)C3O2)cc1 (centres unmarked) ?
Data returned: 2
